B1: Far upstream element-binding protein 2, residues 142 to 214; numbered along this chain, Q92945 (parent)
chain: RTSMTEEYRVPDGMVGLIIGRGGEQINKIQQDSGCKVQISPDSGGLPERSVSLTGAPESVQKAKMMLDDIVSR

- Variants of: B1
- assay.explanation: abundance fitness (aPCA) (normalised: wild type 0, dead -1); higher = more abundant; growth selection in yeast, the domain comes from the species named
- condition.notes: Homo sapiens
quantity.name: abundance fitness
Lab note: write the figure by itself, no unit.

Reference set (10 entries):
item.sequence	abundance fitness
RTSMTEEYRVPDGMVGLIIGRGFEQINKIQQDSGCKVQISPDSGGLPERSVSLTGAPESVQKAKMMLDDIVSR [G23F]	-0.3
RTSMTEEYRVPDGMVGLIIGIGGEQINKIQQDSGCKVQISPDSGGLPERSVSLTGAPESVQKAKMMLDDIVSR [R21I]	-0.191
RTSMTEEYRVPDGMVGLIIGRGGEQINKIQQDSGCKVQISPDSGGLPERSVSLTGAPESVQKWKMMLDDIVSR [A63W]	-1.55
RTSMTEEYRVPDGMVGLIIGRGGEQINKIQQDSGCKVQISPDSRGLPERSVSLTGAPESVQKAKMMLDDIVSR [G44R]	-0.071
RTSMTEEYRVPDGMVGLIIGRGGEQINKIQQDSGCKVQISPDSGGLPERYVSLTGAPESVQKAKMMLDDIVSR [S50Y]	-0.137
RTSMTEEYRVPDGMVGLIIGRGGEQINKIQQDSGCKVQISPDSGGLPERSVSLTGAPESVQKAKMMQDDIVSR [L67Q]	-0.64
RTSMTEEYRVPDGMVGLIIGRGGEQINKIQQDSGCWVQISPDSGGLPERSVSLTGAPESVQKAKMMLDDIVSR [K36W]	-0.283
RTSMTEEYRVPDGMVGLIIGRGGEQINKIQQDSGCKVQISPDSQGLPERSVSLTGAPESVQKAKMMLDDIVSR [G44Q]	0.034
RTSMTEEYRVPDGMVGLIIGRGGEQINKIQQDSGCKVQISLDSGGLPERSVSLTGAPESVQKAKMMLDDIVSR [P41L]	-0.172
RTSMTEEYRVPDGMVGLIIGRGGEQINKIQQDSGCKVQISPDSGGLAERSVSLTGAPESVQKAKMMLDDIVSR [P47A]	0.02

Query: Give a short answer stating reported abundance fitness for RTSMTEEYRVPDGMVGLIIGRGGEQINKIQQDSGCKVQISPDSGGLPERSVSLTGAPEFVQKAKMMLDDIVSR [S59F] .
Reply: -0.528

Query: Give a short answer stating reported abundance fitness for RTSMTEEYRVPDGMVGLIIGRGGEQINKIQQDSGCKEQISPDSGGLPERSVSLTGAPESVQKAKMMLDDIVSR [V37E] .
Reply: -0.704

Query: Give a short answer stating reported abundance fitness for RTSMTEEYRVPDGMVGLIIGRGGEQINKIQQDGGCKVQISPDSGGLPERSVSLTGAPESVQKAKMMLDDIVSR [S33G] .
Reply: -0.861

Query: Give a short answer stating reported abundance fitness for RTSMTEEYRVPDGMVGLIIGRGGEQINKIQQDSGCKVQISPDSGGLPERSVVLTGAPESVQKAKMMLDDIVSR [S52V] .
Reply: 0.041

Query: Give a short answer stating reported abundance fitness for RTSMTEEYRVPDGMVGLIIGAGGEQINKIQQDSGCKVQISPDSGGLPERSVSLTGAPESVQKAKMMLDDIVSR [R21A] .
Reply: 0.026
